Data credit: patent US20220064329A1

Measured pKd values are reported for all entries that follow.
- system_name: T1, recombinant human activated Factor VII (FVIIa) (human, UniProt P08709 61-212; P08709 213-466, ten glutamate residues of the Gla domain may be gamma-carboxylated)
- T1 construct: chains tethered by a disulfide bond; also called Factor VIIa; rFVIIa
- T1 sequence 1: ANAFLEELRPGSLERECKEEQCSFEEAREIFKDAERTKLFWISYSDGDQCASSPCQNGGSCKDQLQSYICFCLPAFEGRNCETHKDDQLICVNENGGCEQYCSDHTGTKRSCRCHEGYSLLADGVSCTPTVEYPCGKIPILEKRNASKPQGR
- T1 sequence 2: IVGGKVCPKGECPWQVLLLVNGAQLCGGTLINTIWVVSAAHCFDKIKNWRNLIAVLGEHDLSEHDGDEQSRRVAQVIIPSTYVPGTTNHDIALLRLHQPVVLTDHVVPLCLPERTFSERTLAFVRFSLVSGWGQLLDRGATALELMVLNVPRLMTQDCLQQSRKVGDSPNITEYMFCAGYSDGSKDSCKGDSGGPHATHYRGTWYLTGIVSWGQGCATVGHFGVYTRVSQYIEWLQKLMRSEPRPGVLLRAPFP
- test_details: BLI (Fortebio)
API: returns pKd as number; meaning -log10 of concentration in mol/L.

Worked cases, answers included:
| binder | assay_result |
| --- | --- |
| VH SEQ ID NO 554 / VL SEQ ID NO 350 (antibody, IgG4, V domains shown, humanized 11F2; IgG4 S228P/kappa) VH: QVQLQESGPGLVKPSDTLSLTCAVSGYSISSDSAWSWIRQFPGKGLEWIGYIQYSGSTNYNPSLKSRVTMSVDTSKNQFSLKLSSVTALDTAVYYCARSVNYYGNSFAVGPWGQGTLVTVSS VL: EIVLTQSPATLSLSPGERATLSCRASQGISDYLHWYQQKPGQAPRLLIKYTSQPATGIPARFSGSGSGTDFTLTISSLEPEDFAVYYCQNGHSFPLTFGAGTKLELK | 7.72 |
| VH SEQ ID NO 642 / VL SEQ ID NO 486 (antibody, IgG4, V domains shown, humanized 11F2; IgG4 S228P/kappa) VH: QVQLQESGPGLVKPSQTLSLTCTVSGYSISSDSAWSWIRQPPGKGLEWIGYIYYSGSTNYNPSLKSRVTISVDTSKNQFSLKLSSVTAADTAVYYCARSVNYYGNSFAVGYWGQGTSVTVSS VL: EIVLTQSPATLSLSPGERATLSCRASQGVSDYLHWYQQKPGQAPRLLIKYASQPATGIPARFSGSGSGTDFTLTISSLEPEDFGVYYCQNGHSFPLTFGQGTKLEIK | 8.11 |

// next item, pKd requested
Incoming: Requested read-out: pKd. Entry: VH SEQ ID NO 610 / VL SEQ ID NO 318 (antibody, IgG4, V domains shown, humanized 11F2; IgG4 S228P/kappa) VH: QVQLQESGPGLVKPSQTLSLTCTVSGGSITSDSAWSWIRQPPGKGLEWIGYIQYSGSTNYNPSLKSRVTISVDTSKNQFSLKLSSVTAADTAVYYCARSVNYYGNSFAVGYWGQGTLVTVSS VL: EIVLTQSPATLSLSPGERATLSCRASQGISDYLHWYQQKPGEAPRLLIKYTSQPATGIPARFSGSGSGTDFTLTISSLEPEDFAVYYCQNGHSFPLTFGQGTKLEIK
Outgoing: 8.00
